measured on: Metabotropic glutamate receptor 5 (Homo sapiens, UniProt P41594)
Sequence (P41594 whole entry): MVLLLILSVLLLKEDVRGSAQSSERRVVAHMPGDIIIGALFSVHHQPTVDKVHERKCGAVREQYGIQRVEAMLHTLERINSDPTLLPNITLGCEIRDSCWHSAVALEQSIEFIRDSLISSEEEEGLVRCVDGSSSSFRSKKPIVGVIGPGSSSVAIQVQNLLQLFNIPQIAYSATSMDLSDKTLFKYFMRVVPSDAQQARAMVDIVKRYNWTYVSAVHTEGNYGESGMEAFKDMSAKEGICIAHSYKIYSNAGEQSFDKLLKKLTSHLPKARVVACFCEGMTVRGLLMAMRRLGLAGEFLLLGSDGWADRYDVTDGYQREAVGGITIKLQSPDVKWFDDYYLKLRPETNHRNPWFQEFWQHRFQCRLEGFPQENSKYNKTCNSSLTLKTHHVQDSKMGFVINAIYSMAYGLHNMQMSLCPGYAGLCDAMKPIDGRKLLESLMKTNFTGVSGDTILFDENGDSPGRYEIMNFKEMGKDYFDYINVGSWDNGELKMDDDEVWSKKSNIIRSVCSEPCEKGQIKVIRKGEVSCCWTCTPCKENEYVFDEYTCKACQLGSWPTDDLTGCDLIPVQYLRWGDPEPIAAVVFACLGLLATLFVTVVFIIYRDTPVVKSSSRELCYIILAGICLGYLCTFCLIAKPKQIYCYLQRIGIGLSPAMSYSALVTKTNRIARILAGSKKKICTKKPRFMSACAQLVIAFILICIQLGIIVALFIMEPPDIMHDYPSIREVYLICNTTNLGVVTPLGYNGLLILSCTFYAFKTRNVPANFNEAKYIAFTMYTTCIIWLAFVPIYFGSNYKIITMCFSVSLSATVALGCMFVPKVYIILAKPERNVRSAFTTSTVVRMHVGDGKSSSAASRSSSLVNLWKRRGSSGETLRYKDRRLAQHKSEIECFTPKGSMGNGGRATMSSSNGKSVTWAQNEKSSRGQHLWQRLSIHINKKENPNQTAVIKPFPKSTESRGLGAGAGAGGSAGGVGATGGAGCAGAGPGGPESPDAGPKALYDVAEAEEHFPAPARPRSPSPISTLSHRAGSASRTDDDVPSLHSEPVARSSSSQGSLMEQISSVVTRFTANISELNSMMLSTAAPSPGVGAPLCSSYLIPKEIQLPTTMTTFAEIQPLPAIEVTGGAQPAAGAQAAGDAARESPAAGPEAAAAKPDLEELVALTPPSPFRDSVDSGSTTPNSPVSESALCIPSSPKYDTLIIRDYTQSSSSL
protocol: Positive modulation of human recombinant mGluR5 expressed in HEK293A cells by calcium based FLIPR assay
pEC50: −log10 of the molar value.
Below: a set of entries, each annotated with reported pEC50.
parameter measured: pEC50

compound="CC1=NC2CCN(C(=O)Cn3cc(-c4ccc(F)c(C)c4)nc3-c3ccccc3)CC2O1 (centres undefined)" recorded_number=7.05
compound=Cc1cc(-c2cn(CC(=O)N3CCN(c4cccnn4)CC3)c(-c3ccccc3)n2)ccc1F recorded_number=6.07
compound=Cc1cc(-c2cn(CC(=O)N3CCN(c4ccccn4)CC3)c(-c3ccc(F)cc3)n2)ccc1F recorded_number=7.28
compound="CC1=NC2CCN(C(=O)Cn3cc(-c4ccc(F)c(C)c4)nc3-c3ccc(F)cc3)CC2O1 (centres undefined)" recorded_number=7.40
